Entry source: patent US9481676B2

Hi there, I'd appreciate the recorded inhibition at 1 µM for every entry that follows.
Molecular target: human recombinant serotonin (5-Hydroxytryptamine) 5-HT6 receptor (Homo sapiens, UniProt P50406)
Construct: expressed in transfected cells; host or cells: human HeLa cells
Sequence (P50406 whole entry): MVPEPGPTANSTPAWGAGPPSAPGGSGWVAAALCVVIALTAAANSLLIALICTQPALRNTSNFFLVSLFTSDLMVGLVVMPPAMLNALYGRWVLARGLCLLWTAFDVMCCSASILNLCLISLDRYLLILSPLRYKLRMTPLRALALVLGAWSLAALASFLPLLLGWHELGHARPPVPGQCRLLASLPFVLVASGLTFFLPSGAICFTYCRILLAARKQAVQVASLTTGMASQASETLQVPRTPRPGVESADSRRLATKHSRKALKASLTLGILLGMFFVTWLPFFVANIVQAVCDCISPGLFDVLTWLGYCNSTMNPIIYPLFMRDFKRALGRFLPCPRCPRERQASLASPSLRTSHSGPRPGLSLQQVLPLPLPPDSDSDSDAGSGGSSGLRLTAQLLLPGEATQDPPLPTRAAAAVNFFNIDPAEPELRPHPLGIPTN
Assay: Serotonin 5-HT6 radioligand binding ([3H]LSD)
Settings: compound at 1 μM; read-out: Serotonin (1 μM) 5-HT6, percent inhibition of specific binding

Below, 3 compounds whose answers are already recorded.
{"COMPOUND": "Cc1ccc2c(c1)c1c(n2CC(O)c2ccncc2)CCN(C)CC1 (stereo not shown) [Compound No. 43]", "inhibition at 1 µM": "48%"}
{"COMPOUND": "Cc1ccc(C(O)Cn2c3c(c4cc(C)ccc42)CCN(C)CC3)cc1 (stereo not shown) [Compound No. 27]", "inhibition at 1 µM": "92%"}
{"COMPOUND": "CN1CCc2c(n(CCc3ccc(C(F)(F)F)nc3)c3ccc(Cl)cc23)CC1 [Compound No. 1]", "inhibition at 1 µM": "86%"}

Then there is this compound:
For the compound COc1ccc(/C(C)=C/n2c3c(c4cc(Cl)ccc42)CCN(C)CC3)cc1F [Compound No. 157] , give its reported inhibition at 1 µM.
78%

* * *

Molecular target: human recombinant serotonin (5-Hydroxytryptamine) 5-HT2C receptor (Homo sapiens, UniProt P28335)
Construct: expressed in transfected cells; host or cells: CHO-K1 cells
Sequence (P28335 33-458): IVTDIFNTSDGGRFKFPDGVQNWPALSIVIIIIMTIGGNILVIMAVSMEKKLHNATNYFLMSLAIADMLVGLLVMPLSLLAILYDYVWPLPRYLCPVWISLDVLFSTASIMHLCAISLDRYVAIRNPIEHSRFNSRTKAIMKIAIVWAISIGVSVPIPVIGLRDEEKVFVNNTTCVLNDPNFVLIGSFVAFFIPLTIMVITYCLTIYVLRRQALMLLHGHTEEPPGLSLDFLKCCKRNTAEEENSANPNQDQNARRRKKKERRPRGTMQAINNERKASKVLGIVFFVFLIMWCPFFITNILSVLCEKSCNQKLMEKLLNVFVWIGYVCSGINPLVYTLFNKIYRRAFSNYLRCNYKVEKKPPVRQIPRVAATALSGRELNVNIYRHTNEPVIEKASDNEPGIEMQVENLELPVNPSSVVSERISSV
Assay: Serotonin 5-HT2C radioligand binding ([3H]Mesulergine)
Settings: compound at 1 μM; read-out: Serotonin (1 μM) 5-HT2C, percent inhibition of specific binding
Label 1 when inhibition at 1 µM >= 50%; otherwise -1.

Recorded results for 2 compounds are shown here.
{"COMPOUND": "C/C(=C\\n1c2c(c3cc(Cl)ccc31)CCN(C)CC2)c1ccc(F)c(F)c1", "CATEGORY": 1}
{"COMPOUND": "C/C(=C/n1c2c(c3cc(C)ccc31)CCN(C)CC2)c1ccc(Cl)cc1Cl", "CATEGORY": 1}

Check this compound for inhibition at 1 µM at or above 50%: C/C(=C/n1c2c(c3cc(Cl)ccc31)CCN(C)CC2)c1ccccc1Cl
1

Check this compound for inhibition at 1 µM at or above 50%: Cc1ccc2c(c1)c1c(n2CC(O)c2cccnc2)CCN(C)CC1 (centres unmarked)
1

Check this compound for inhibition at 1 µM at or above 50%: C/C(=C/n1c2c(c3cc(C)ccc31)CCN(C)CC2)c1ccccc1F
1

Check this compound for inhibition at 1 µM at or above 50%: Cc1ccc2c(c1)c1c(n2CC(=O)NC2CCCCC2)CCN(C)CC1
-1

Check this compound for inhibition at 1 µM at or above 50%: CN1CCc2c(n(CC(=O)N3CCOCC3)c3ccc(Cl)cc23)CC1
-1

Check this compound for inhibition at 1 µM at or above 50%: COc1ccc(C(O)Cn2c3c(c4cc(Cl)ccc42)CCN(C)CC3)cc1 (centres unmarked)
1

* * *

Biological target: human recombinant serotonin (5-Hydroxytryptamine) 5-HT6 receptor (Homo sapiens, UniProt P50406)
Construct: expressed in transfected cells; host or cells: human HeLa cells
Test: Serotonin 5-HT6 radioligand binding ([3H]LSD)
Details: compound at 1 μM; read-out: Serotonin (1 μM) 5-HT6, percent inhibition of specific binding
Hi there, I'd appreciate the recorded inhibition at 1 µM for every entry that follows.
Give your result as the value with the unit written after it.

Below are some molecules; for each one, tell me its inhibition at 1 µM.
1. Cc1ccc2c(c1)c1c(n2CC(O)c2ccc(F)cc2)CCN(C)CC1 (stereo not drawn)
2. C/C(=C/n1c2c(c3cc(Cl)ccc31)CCN(C)CC2)c1cccc(F)c1

1. 84%
2. 101%

* * *

Hi there, I'd appreciate the recorded inhibition at 1 µM for every entry that follows.
Target: human recombinant adrenergic α2B receptor (Homo sapiens, UniProt P18089)
Construct: expressed in transfected cells; host or cells: CHO-K1 cells
Sequence (P18089 whole entry): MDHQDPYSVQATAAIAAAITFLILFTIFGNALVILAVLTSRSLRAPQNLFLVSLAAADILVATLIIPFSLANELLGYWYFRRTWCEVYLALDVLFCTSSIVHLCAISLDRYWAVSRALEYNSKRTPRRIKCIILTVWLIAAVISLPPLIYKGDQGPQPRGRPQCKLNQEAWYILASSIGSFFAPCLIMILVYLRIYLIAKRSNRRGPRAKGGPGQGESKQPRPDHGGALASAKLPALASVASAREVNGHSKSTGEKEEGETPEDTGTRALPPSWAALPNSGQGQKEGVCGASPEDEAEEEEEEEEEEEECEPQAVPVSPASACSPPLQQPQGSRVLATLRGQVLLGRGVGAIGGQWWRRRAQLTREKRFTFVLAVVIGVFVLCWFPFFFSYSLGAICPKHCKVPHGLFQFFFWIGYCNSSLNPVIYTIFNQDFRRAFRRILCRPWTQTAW
Test: Adrenergic alpha2B radioligand binding ([3H]Rauwolscine)
Details: compound at 1 μM; read-out: Adrenergic (1 μM) α2B, percent inhibition of specific binding
One number for each entry, in %.

Below, 3 molecules whose answers are already recorded.
{"MOLECULE": "Cc1ccc2c(c1)c1c(n2CC(=O)NC(C)C)CCN(C)CC1 [Compound No. 54]", "READOUT_UNITS": "%", "inhibition at 1 µM": 1}
{"MOLECULE": "Cc1ccc2c(c1)c1c(n2CCc2ccc(C(F)(F)F)nc2)CCN(C)CC1 [Compound No. 20]", "READOUT_UNITS": "%", "inhibition at 1 µM": 88}
{"MOLECULE": "Cc1ccc2c(c1)c1c(n2CCc2ccccc2F)CCN(C)CC1 [Compound No. 63]", "READOUT_UNITS": "%", "inhibition at 1 µM": 73}

Below are some molecules; for each one, tell me its inhibition at 1 µM.
1. CN1CCc2c(n(/C=C/c3ccc(F)c(F)c3)c3ccc(Cl)cc23)CC1 [Compound No. 236]
2. CN1CCc2c(n(/C=C/c3ccc(F)cc3)c3ccc(Cl)cc23)CC1 [Compound No. 234]
3. C=C(Cn1c2c(c3cc(Cl)ccc31)CCN(C)CC2)c1ccc(F)cc1 [Compound No. 82]
4. CN1CCc2c(n(CC(=O)OCc3ccccc3)c3ccc(Cl)cc23)CC1 [Compound No. 75]
5. C/C(=C\n1c2c(c3cc(C)ccc31)CCN(C)CC2)c1ccc(Cl)cc1Cl [Compound No. 238]

1. 103
2. 100
3. 91
4. 21
5. 103

* * *

Hi there, I'd appreciate the recorded inhibition at 1 µM for every entry that follows.
Biological target: human recombinant serotonin (5-Hydroxytryptamine) 5-HT2A receptor (Homo sapiens)
Construct: expressed in transfected cells; host or cells: CHO-K1 cells
Sequence (P28223 whole entry): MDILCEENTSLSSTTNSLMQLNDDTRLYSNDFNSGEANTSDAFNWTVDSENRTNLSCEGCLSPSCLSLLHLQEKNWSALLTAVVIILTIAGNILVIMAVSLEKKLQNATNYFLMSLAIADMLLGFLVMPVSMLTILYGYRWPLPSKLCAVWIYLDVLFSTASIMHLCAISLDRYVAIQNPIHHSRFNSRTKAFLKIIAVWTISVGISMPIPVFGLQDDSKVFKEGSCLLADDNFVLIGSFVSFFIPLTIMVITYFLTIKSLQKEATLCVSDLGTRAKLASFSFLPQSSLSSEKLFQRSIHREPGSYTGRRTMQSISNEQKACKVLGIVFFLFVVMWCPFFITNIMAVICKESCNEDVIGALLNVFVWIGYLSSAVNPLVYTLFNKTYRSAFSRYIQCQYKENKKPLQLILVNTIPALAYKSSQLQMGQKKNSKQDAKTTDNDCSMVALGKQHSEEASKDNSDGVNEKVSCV
Assay: Serotonin 5-HT2A radioligand binding ([3H]Ketanserin)
Conditions: compound at 1 μM; read-out: Serotonin (1 μM) 5-HT2A, percent inhibition of specific binding
Answers are plain numbers, in %.

{"COMPOUND": "CN1CCc2c(n(CC(=O)OCc3ccccc3)c3ccc(Cl)cc23)CC1", "READOUT_UNITS": "%", "MEAS_VALUE": 34}
{"COMPOUND": "C/C(=C\\n1c2c(c3cc(C)ccc31)CCN(C)CC2)c1ccc(Cl)cc1", "READOUT_UNITS": "%", "MEAS_VALUE": 100}
{"COMPOUND": "CN1CCc2c(n(/C=C/c3ccc(F)cc3)c3ccc(Cl)cc23)CC1", "READOUT_UNITS": "%", "MEAS_VALUE": 101}
{"COMPOUND": "Cc1ccc(CCn2c3c(c4cc(Cl)ccc42)CCN(C)CC3)cc1", "READOUT_UNITS": "%", "MEAS_VALUE": 100}
{"COMPOUND": "CN1CCc2c(n(/C=C/c3ccccc3)c3ccc(Cl)cc23)CC1", "READOUT_UNITS": "%", "MEAS_VALUE": 99}
{"COMPOUND": "Cc1ccc2c(c1)c1c(n2CC(=O)N2CCOCC2)CCN(C)CC1", "READOUT_UNITS": "%", "MEAS_VALUE": 96}
{"COMPOUND": "CN1CCc2c(n(CC(C)(O)c3ccc(F)cc3)c3ccc(Cl)cc23)CC1 (centres unmarked)", "READOUT_UNITS": "%", "MEAS_VALUE": 97}

Then there is this compound:
For the compound CN1CCc2c(n(CCc3ccc(C(=O)O)nc3)c3ccc(Cl)cc23)CC1 , give its reported inhibition at 1 µM.
8

* * *

Hi there, I'd appreciate the recorded inhibition at 1 µM for every entry that follows.
Molecular target: human recombinant histamine H2 receptor (Homo sapiens)
Construct: expressed in transfected cells; host or cells: CHO-K1 cells
Sequence (P25021 whole entry): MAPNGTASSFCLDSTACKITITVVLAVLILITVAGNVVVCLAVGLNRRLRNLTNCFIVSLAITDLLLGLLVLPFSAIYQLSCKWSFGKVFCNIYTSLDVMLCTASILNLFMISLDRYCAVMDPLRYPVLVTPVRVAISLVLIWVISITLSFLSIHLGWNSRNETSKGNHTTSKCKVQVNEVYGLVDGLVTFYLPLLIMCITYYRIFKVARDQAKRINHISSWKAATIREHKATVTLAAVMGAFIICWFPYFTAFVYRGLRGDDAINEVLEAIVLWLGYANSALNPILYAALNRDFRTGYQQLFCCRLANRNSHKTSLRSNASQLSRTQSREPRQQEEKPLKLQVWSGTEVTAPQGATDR
Assay: Histamine H2 radioligand binding ([125I]Aminopotentidine)
Details: compound at 1 μM; read-out: Histamine Binding (1 μM) H2, percent inhibition of specific binding
Numbers only, in %.

{"COMPOUND": "Cc1ccc(C(O)Cn2c3c(c4cc(Cl)ccc42)CCN(C)CC3)cc1 (centres unmarked)", "inhibition at 1 µM, %": 84}
{"COMPOUND": "Cc1ccc2c(c1)c1c(n2/C=C/c2ccccc2F)CCN(C)CC1", "inhibition at 1 µM, %": 94}

Below are some compounds; for each one, tell me its inhibition at 1 µM.
1. CN1CCc2c(n(CCc3ccncc3)c3ccc(Cl)cc23)CC1
2. CN1CCc2c(n(CCc3cncc(Cl)c3)c3ccc(Cl)cc23)CC1
3. COc1ccc(C#Cn2c3c(c4cc(C)ccc42)CCN(C)CC3)cc1F
4. Cc1ccc2c(c1)c1c(n2CC(=O)N2CCOCC2)CCN(C)CC1
5. Cc1ccc2c(c1)c1c(n2CCc2ccccn2)CCN(C)CC1
6. CN1CCc2c(n(CCc3ccccc3F)c3ccccc23)CC1
7. C/C(=C/n1c2c(c3cc(Cl)ccc31)CCN(C)CC2)c1ccc(Cl)cc1Cl

[62, 78, 4, 26, 44, 81, 86]
